biological target: SARS-CoV-2 spike S1 subunit (SARS-CoV-2 (wild type), UniProt P0DTC2 16-685); conditions: protein: commercial; tags: His
QUANTITY KIND: pKd
Numbers only, as −log10 of the molar value.

Req: Can you share its pKd? I mean this binder: MSA1 (structured_DNA) DNA: TTACGTCAAGGTGTCACTCCCACTTTCCGGTTAATTTATGCTCTACCCGTCCACCTACCGGAAGCATCTCTTTGGCGTG
Resp: 8.74
